Tested on: MDA-MB-435
Assay: NCI tumour cell line growth inhibition, 48 h
Form field: TGI (one value per entry).
The figure you give is taken to be in µM; do not add the unit.

| molecule | measurement |
| --- | --- |
| COc1nc2cccc(C(O)c3ccccc3)c2nc1-c1ccccc1 (centres undefined) | 4.79 |

Below: the item to evaluate.
The reported TGI value, MDA-MB-435, for COC1C(O)CC(OC2CC(OC3CC(O[C@@H]4C(=O)c5c(cc6cc(OC7CC(OC8CC(O)C(O)C(C)O8)C(O)C(C)O7)c(C)c(O)c6c5O)CC4[C@H](OC)C(=O)O)OC(C)C3O)OC(C)C2O)OC1C (some centres undefined) reads 24.7

* * *

System: DU-145 prostate
Experiment: NCI tumour cell line growth inhibition, 48 h
reported-metric: TGI

Example results:
| compound | TGI |
| --- | --- |
| CC(=O)c1[nH]c(NC(C)C)c(C(=S)Nc2ccccc2)c1N | > 100 µM |
| CCCCC(CCCCCC(CCCC)NCc1ccc2c(c1)OCO2)NCc1ccc2c(c1)OCO2 (stereo unspecified) | 2.04 µM |
| CCCCCCCCCCCC(=O)OC[C@H](C[As](=O)(O)O)OC(=O)CCCCCCCCCCC | 44.2 µM |
| COc1ccccc1Cc1ccc(C2C=CC3(CC(=O)C=C3C)C(=O)C2)o1 (stereo unspecified) | > 100 µM |

Per the records, this compound ( `O=P1(c2ccccc2)c2ccccc2-c2ccccc21` ) has TGI equal to > 100 µM

GET /value?item= `O=C(O)[C@H](Cc1c[nH]c2ccccc12)N1C(=O)c2ccccc2C1=O` &field=TGI returns > 100 µM

Consider `O=c1[nH]c2ccccc2c2nc3ccccc3n12` . Its measured TGI is > 100 µM

# TGI of `CSc1nc(C)cc(Nc2ccc(O)c(CN3CCOCC3)c2)n1` = > 100 µM

Sure, the documented TGI for COC(=O)N1CC(=O)C(C(=O)NC23CC4CC(CC(C4)C2)C3)C1 (stereo unspecified) is > 100 µM

CC1(c2sccc2Cl)CC(c2sccc2Cl)=C(C#N)C(=C(C#N)C#N)N1 (stereo unspecified) yielded TGI of 31.2 µM

// sample `CCN1CCC(Nc2ccnc3cc(Cl)ccc23)CC1` , its TGI was > 100 µM

* * *

Tested on: A549 NSCLC
Test: NCI tumour cell line growth inhibition, 48 h
Catalogue of GI50 readings, one per entry.

Record CN(CCCCCl)P(=O)(OCCS(=O)(=O)CC(NC(=O)CCC(N)C(=O)O)C(=O)NC(C(=O)O)c1ccccc1)OCC1OC(n2ccc(N)nc2=O)C(O)C1O (centres undefined) , field GI50: 4.45 µM

Form: compound = `C=C1C(=O)O[C@H]2[C@H]1CC/C(COC(=O)NCc1c[nH]c3ccccc13)=C\CC[C@@]1(C)O[C@@H]21` ; GI50 = 12.5 µM

The recorded GI50 for entry COC1C(O)CC(OC2CC(OC3CC(O[C@@H]4C(=O)c5c(cc6cc(OC7CC(OC8CC(O)C(O)C(C)O8)C(O)C(C)O7)c(C)c(O)c6c5O)CC4[C@H](OC)C(=O)O)OC(C)C3O)OC(C)C2O)OC1C (some centres undefined) equals 1.66 µM

Reported GI50 of `COc1cccc(/C=C/C(=O)c2ccc(SC)cc2)c1OC` : 12.1 µM

* * *

System: U251 CNS
Experiment: NCI tumour cell line growth inhibition, 48 h
reported-metric: TGI

Lab entry: U251 CNS assay, compound CN1CN(C2OC(CO)C(O)C2O)c2nc(N)[nH]c(=O)c21 (stereo not given) , TGI = > 100 µM

I looked up CC1CN=C(NS(=O)(=O)c2cc(C(=O)Nc3ccc(Cl)cc3)c(Cl)cc2S)NN1 (stereo not given) and its TGI for U251 CNS was > 100 µM

Field TGI (U251 CNS), entry `O=C(/C=C\c1cccc2ccccc12)c1ccc(F)cc1` : 29.9 µM

TGI value, target or system U251 CNS, for C=CC(O)(CBr)CCC(Br)C(=C)C (stereo not given) : > 10 µM

Form field TGI for item COC(=O)c1cc(C(=O)OC)c(CC(=O)C(=O)NC2C3CC4CC(C3)CC2C4)nc1CC(=O)C(=O)NC1C2CC3CC(C2)CC1C3 (stereo not given) on U251 CNS: > 100 µM

Record for `CCOC(=O)C(=O)Nc1nc2c(OCC)cccc2s1` under target or system U251 CNS: TGI reported as > 100 µM

Reading of TGI for COc1cc(C2C3=C(COC3=O)Oc3cc4c(cc32)OCO4)ccc1O (stereo not given) with U251 CNS: > 100 µM

Entry O=C(Nc1ccc(Cl)cc1C(F)(F)F)C(=O)C1CCCS1(=O)=O (stereo not given) ; assay system U251 CNS; TGI recorded at > 100 µM

Form: item O=C1c2ccccc2C(=O)N1CCSCC(CO)SCCN1C(=O)c2ccccc2C1=O (stereo not given) ; test system U251 CNS; TGI: > 100 µM

Test item `C=C1C(=O)O[C@H]2[C@H]1CC/C(COC(=O)NCc1c[nH]c3ccccc13)=C\CC[C@@]1(C)O[C@@H]21` ; U251 CNS; reported TGI was 23.1 µM

* * *

System: IGROV1 ovarian
Test: NCI tumour cell line growth inhibition, 48 h
reported-metric: TGI

# lookup: CC(CCC[C@H](C)CO)[C@H]1[C@@H](O)C(O)C2[C@@H]3C[C@@H](O)C4(O)C[C@@H](O)CC[C@]4(C)C3CC[C@@]21C (stereo not given in full) on IGROV1 ovarian, TGI = > 100 µM

* * *

Test system: OVCAR-3 ovarian
Experiment: NCI tumour cell line growth inhibition, 48 h
reported-metric: TGI

| compound | TGI |
| --- | --- |
| N/N=C1\C(=O)N(Cc2ccccc2)C(=O)C1C(=O)NCc1ccccc1 (stereo not drawn) | > 100 µM |
| C[C@@]1(C(=O)O)CCC[C@]2(C)C1CC[C@@]13C[C@@](O)(CC[C@]12O)[C@@]1(CO1)C3 (stereo partly drawn) | > 100 µM |

The reported value for `O=c1[nH]c2ccccc2c2nc3ccccc3n12` in terms of TGI is > 100 µM

* * *

Tested on: SK-MEL-5 melanoma
Test: NCI tumour cell line growth inhibition, 48 h; in the data active = GI50 below about 0.43 µM; inactive = the rest
Outcome field: choose from active, inactive

Illustrative cases are given below, each with its answer.
| molecule | target-or-test-system | class-label |
| --- | --- | --- |
| COc1cc(C2CC(c3cccc(Nc4ccnc5cc(Cl)ccc45)c3)=NN2c2ccc(Cl)cc2)cc(OC)c1OC (stereo unspecified) | SK-MEL-5 melanoma | inactive |
| CCCCC(CCCCCC(CCCC)NCc1ccc2c(c1)OCO2)NCc1ccc2c(c1)OCO2 (stereo unspecified) | SK-MEL-5 melanoma | inactive |
| Nc1c(C(=O)Nc2ccccc2)sc2nc3c(cc12)CCCCC3 | SK-MEL-5 melanoma | active |
| CSCS(=O)C[C@H](CO)NC(=O)/C=C/c1c(C)[nH]c(=O)[nH]c1=O (stereo partly specified) | SK-MEL-5 melanoma | inactive |

// param item: `O=C1/C=C/[C@@H](O)[C@@H]2C[C@@H](O)C[C@H]2/C=C/CCC[C@H](CCc2cccc3ccccc23)O1` ; yields the recorded call
active

Would you mind telling me which call this test gave `N#Cc1c(NCc2ccccc2)nc(NCc2ccccc2)c(C#N)c1-c1ccc(O)cc1` ?
inactive

Could you kindly confirm the outcome this assay logged for `O=S(=O)(CCN1CCOCC1)Nc1cc(-c2ccc3ncnc(Nc4ccc(F)c(Cl)c4)c3c2)cnc1Cl` ?
active

Hello, I am checking results. What call was entered for `O=C1C(Cl)=C(Nc2ccc(Nc3ccccc3)c(NC3=C(Cl)C(=O)c4ccccc4C3=O)c2)C(=O)c2ccccc21` ?
inactive

Dear colleague, could you share the recorded outcome for `COc1cc(OC)cc(-c2ccc(-c3ccc(C(=N)N)cn3)o2)c1` when you have a moment?
inactive

Any idea what this test logged for `COc1cc(C(=O)O[C@H](C(=O)NCCCNC(=O)[C@@H](OC(=O)c2cc(OC)cc3c(C)cccc23)[C@]2(C)CO2)[C@]2(C)CO2)c2cccc(C)c2c1` ?
active

Dear all, I need the recorded test outcome for `Cc1ccc(Nc2nccc(N(C)c3ccc4c(C)n(C)nc4c3)n2)cc1S(N)(=O)=O` , thank you.
inactive

* * *

System: CAKI-1 renal
Test: NCI tumour cell line growth inhibition, 48 h
Some compounds, each annotated with its measured TGI.

Worked cases, answers included:
| compound | TGI |
| --- | --- |
| CN(CCCCCl)P(=O)(OCCS(=O)(=O)CC(NC(=O)CCC(N)C(=O)O)C(=O)NC(C(=O)O)c1ccccc1)OCC1OC(n2ccc(N)nc2=O)C(O)C1O (stereo not given) | > 75 µM |
| CC1=CC(C)=NN=C(N)N1S(=O)(=O)c1cc(C)c(Cl)cc1SCc1ccccc1 | > 100 µM |
| Nc1c(C(=O)Nc2ccccc2)sc2nc3c(cc12)CCCCC3 | > 100 µM |

// TGI value for `NCCSc1cc(O)c2c(c1N)C(=O)c1ccccc1C2=O` : > 100 µM

Measured TGI of `Cc1cc(Cl)nc2nc(Cl)c(N)cc12` : 0.871 µM

Notebook: `CN(CC(=O)O)c1ncc2c(n1)C=CCC2` , TGI read as > 100 µM

Value of TGI reported for the compound `Cc1cc(S(=O)(=O)N2CCNNC2=O)c(S)cc1Cl` is > 100 µM

Quick note, TGI for `COc1cc(OC)c(C(=O)c2cccs2)cc1N` landed at > 100 µM

What the record says about `O=c1c2ccc(S(=O)(=O)c3ccc4c(=O)n5c6ccccc6nc5c5cccc3c45)c3cccc(c32)c2nc3ccccc3n12` : TGI is > 100 µM

According to the records, this compound COc1cc2c3cc1Oc1c(O)c(OC)cc4c1C(Cc1ccc(O)c(c1)Oc1ccc(cc1)CC3N(C)CC2)N(C)CC4 (stereo not given) displays TGI of 32.4 µM
